The entries below are paired with their reported IC50.
Tested on: NCI-H630;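 also: growth inhibition of NCI-H630 cells, read out with a cell viability assay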
test.name: cells
Assay type: functional, cell-based
test.parameters: Homo sapiens
Description: SANGER: Inhibition of human NCI-H630 cell growth in a cell viability assay.

// solved cases for IC50 follow
- molecule: "Cn1cc(/C=C2\\C(=O)Nc3cccnc32)c2ccccc21"
  assayed.target: "NCI-H630"
  IC50: "> 2000 nM"
- molecule: "CC(=O)c1c(C)c2cnc(Nc3ccc(N4CCNCC4)cn3)nc2n(C2CCCC2)c1=O [PALBOCICLIB]"
  assayed.target: "NCI-H630"
  IC50: "> 4000 nM"
- molecule: "C[C@]12O[C@H](C[C@]1(O)CO)n1c3ccccc3c3c4c(c5c6ccccc6n2c5c31)CNC4=O [LESTAURTINIB]"
  assayed.target: "NCI-H630"
  IC50: "> 2000 nM"

Param item = CC[C@]1(O)C[C@@H]2CN(CCc3c([nH]c4ccccc34)[C@@](C(=O)OC)(c3cc4c(cc3OC)N(C)[C@H]3[C@@](O)(C(=O)OC)[C@H](OC(C)=O)[C@]5(CC)C=CCN6CC[C@]43[C@@H]65)C2)C1 [VINBLASTINE] ; retrieve measured IC50.
> 100 nM
